Organism: Rattus norvegicus
Experiment: Open TG-GATES - Regimen: Daily Repeat
Format: toxicity, organism-based, Sprague-Dawley
Design: regimen Daily Repeat, gender Male, age 6 weeks
Conditions: in vivo, po, 0 mg/kg, […], tissue Blood, route gavage, dose level Control, time 28 day
Collected MCV values appear next to each entry.
Use fL as the unit, but write only the number.

[[record]]
molecule = "NC1=NC(=O)C(c2ccccc2)O1 (stereo not drawn)"
reported_endpoint = "MCV"
reported = 56.5

[[record]]
molecule = "CCOc1ccc(NC(C)=O)cc1"
reported_endpoint = "MCV"
reported = 55.6

[[record]]
molecule = "CN1C(=O)CCS(=O)(=O)C1c1ccc(Cl)cc1 (stereo not drawn)"
reported_endpoint = "MCV"
reported = 56.8

[[record]]
molecule = "O=C(OC[C@H]1O[C@@H](OC(=O)c2cc(O)c(O)c(OC(=O)c3cc(O)c(O)c(O)c3)c2)[C@H](OC(=O)c2cc(O)c(O)c(OC(=O)c3cc(O)c(O)c(O)c3)c2)[C@@H](OC(=O)c2cc(O)c(O)c(OC(=O)c3cc(O)c(O)c(O)c3)c2)[C@@H]1OC(=O)c1cc(O)c(O)c(OC(=O)c2cc(O)c(O)c(O)c2)c1)c1cc(O)c(O)c(OC(=O)c2cc(O)c(O)c(O)c2)c1"
reported_endpoint = "MCV"
reported = 59.2

[[record]]
molecule = "Nc1c2c(nc3ccccc13)CCCC2"
reported_endpoint = "MCV"
reported = 55.3


Request: Indicate its recorded MCV; the molecule in question is "CN/C(=N/CCSCc1nc[nH]c1C)NC#N"
Response: 56.4

Request: In one line, give reported MCV of the entry "CC(C)NNC(=O)c1ccncc1" .
Response: 55.2

Request: Report MCV, nothing else, for this molecule: "Brc1ccccc1"
Response: 55.4

Request: Identify MCV associated with the molecule "CCCc1cc(=O)[nH]c(=S)[nH]1"
Response: 58.4

Request: Note down MCV recorded for "Cc1nnc2n1-c1ccc(Cl)cc1C(c1ccccc1Cl)=NC2"
Response: 55.8

Request: Determine from records and report MCV for "COC(=O)C1=C(C)NC(C)=C(C(=O)OC)C1c1ccccc1[N+](=O)[O-]"
Response: 64.2

Request: Fill in reported MCV for this entry: CN(C)CCC(c1ccc(Cl)cc1)c1ccccn1 (stereo not drawn)
Response: 56.2

Request: Give the reported value of MCV for this record: "CNC(=C[N+](=O)[O-])NCCSCc1ccc(CN(C)C)o1"
Response: 56.2

* * *

Measured GLC values are reported for all entries that follow.
Species on record: Rattus norvegicus
Experiment: Open TG-GATES - Regimen: Single
Assay type: toxicity, organism-based, Sprague-Dawley
Set-up: regimen Single, gender Male, age 6 weeks
Settings: in vivo, po, 300 mg/kg, 6 h, tissue Plasma, route gavage, dose level Middle
# output: number + unit

Please review the entries below; each comes with its answer.
[[record]]
structure_smiles = "Cc1nnc2n1-c1ccc(Cl)cc1C(c1ccccc1Cl)=NC2"
reported_endpoint = "GLC"
reported = "183.4 mg/dL"

[[record]]
structure_smiles = "CN/C(=N/CCSCc1nc[nH]c1C)NC#N"
reported_endpoint = "GLC"
reported = "185 mg/dL"

[[record]]
structure_smiles = "COC(=O)C1=C(C)NC(C)=C(C(=O)OC)C1c1ccccc1[N+](=O)[O-]"
reported_endpoint = "GLC"
reported = "221.4 mg/dL"

[[record]]
structure_smiles = "O=C(OC[C@H]1O[C@@H](OC(=O)c2cc(O)c(O)c(OC(=O)c3cc(O)c(O)c(O)c3)c2)[C@H](OC(=O)c2cc(O)c(O)c(OC(=O)c3cc(O)c(O)c(O)c3)c2)[C@@H](OC(=O)c2cc(O)c(O)c(OC(=O)c3cc(O)c(O)c(O)c3)c2)[C@@H]1OC(=O)c1cc(O)c(O)c(OC(=O)c2cc(O)c(O)c(O)c2)c1)c1cc(O)c(O)c(OC(=O)c2cc(O)c(O)c(O)c2)c1"
reported_endpoint = "GLC"
reported = "184.2 mg/dL"


Request: Give me measured GLC, please, for this compound: "CNC(=C[N+](=O)[O-])NCCSCc1ccc(CN(C)C)o1"
Response: 193.4 mg/dL

* * *

The following compounds are listed with their measured A/G values.
Species: Rattus norvegicus
Experiment: Open TG-GATES - Regimen: Daily Repeat
Format: toxicity, organism-based, Sprague-Dawley
Design: regimen Daily Repeat, gender Male, age 6 weeks
Details: in vivo, po, 1000 mg/kg, […], tissue Plasma, route gavage, dose level High, time 7 day

[[record]]
compound = "CNC(=C[N+](=O)[O-])NCCSCc1ccc(CN(C)C)o1 [RANITIDINE]"
reported_endpoint = "A/G"
reported = 1.5

[[record]]
compound = "O=C(OC[C@H]1O[C@@H](OC(=O)c2cc(O)c(O)c(OC(=O)c3cc(O)c(O)c(O)c3)c2)[C@H](OC(=O)c2cc(O)c(O)c(OC(=O)c3cc(O)c(O)c(O)c3)c2)[C@@H](OC(=O)c2cc(O)c(O)c(OC(=O)c3cc(O)c(O)c(O)c3)c2)[C@@H]1OC(=O)c1cc(O)c(O)c(OC(=O)c2cc(O)c(O)c(O)c2)c1)c1cc(O)c(O)c(OC(=O)c2cc(O)c(O)c(O)c2)c1 [TANNIC ACID]"
reported_endpoint = "A/G"
reported = 1.7

[[record]]
compound = "CN/C(=N/CCSCc1nc[nH]c1C)NC#N [CIMETIDINE]"
reported_endpoint = "A/G"
reported = 1.4


Request: Report A/G, nothing else, for this compound: Cc1nnc2n1-c1ccc(Cl)cc1C(c1ccccc1Cl)=NC2 [TRIAZOLAM]
Response: 0.9

* * *

Species on record: Rattus norvegicus
Assay: Open TG-GATES - Regimen: Single
Format: toxicity, organism-based, Sprague-Dawley
Parameters: regimen Single, gender Male, age 6 weeks
Details: in vivo, po, 0 mg/kg, 3 h, tissue Plasma, route gavage, dose level Control
reported-endpoint: K (meq/L)
Please give a number only; it is taken to be in meq/L.

Study these solved cases before continuing.
[[record]]
molecule = "CN(C)CCC(c1ccc(Cl)cc1)c1ccccn1 (centres undefined)"
reported = 4.3

[[record]]
molecule = "O=C(OC[C@H]1O[C@@H](OC(=O)c2cc(O)c(O)c(OC(=O)c3cc(O)c(O)c(O)c3)c2)[C@H](OC(=O)c2cc(O)c(O)c(OC(=O)c3cc(O)c(O)c(O)c3)c2)[C@@H](OC(=O)c2cc(O)c(O)c(OC(=O)c3cc(O)c(O)c(O)c3)c2)[C@@H]1OC(=O)c1cc(O)c(O)c(OC(=O)c2cc(O)c(O)c(O)c2)c1)c1cc(O)c(O)c(OC(=O)c2cc(O)c(O)c(O)c2)c1"
reported = 4.8

[[record]]
molecule = "Brc1ccccc1"
reported = 3.8


Okay, next one:
Request: Tell us which K value is on record for NC1=NC(=O)C(c2ccccc2)O1 (centres undefined)
Response: 4

* * *

Organism: Rattus norvegicus
Assay: Open TG-GATES - Regimen: Daily Repeat
Format: toxicity, organism-based, Sprague-Dawley
Set-up: regimen Daily Repeat, gender Male, age 6 weeks
Details: in vivo, po, 0 mg/kg, […], tissue Kidney, route gavage, dose level Control, time 28 day
KIDNEY_R by entry:

Answered cases to consult:
[[record]]
molecule = "COC(=O)C1=C(C)NC(C)=C(C(=O)OC)C1c1ccccc1[N+](=O)[O-]"
reported_endpoint = "KIDNEY_R"
reported = "1.4 g"

[[record]]
molecule = "CN1C(=O)CCS(=O)(=O)C1c1ccc(Cl)cc1 (configuration not stated)"
reported_endpoint = "KIDNEY_R"
reported = "1.3 g"

[[record]]
molecule = "CN(C)CCC(c1ccc(Cl)cc1)c1ccccn1 (configuration not stated)"
reported_endpoint = "KIDNEY_R"
reported = "1.4 g"

[[record]]
molecule = "O=C(OC[C@H]1O[C@@H](OC(=O)c2cc(O)c(O)c(OC(=O)c3cc(O)c(O)c(O)c3)c2)[C@H](OC(=O)c2cc(O)c(O)c(OC(=O)c3cc(O)c(O)c(O)c3)c2)[C@@H](OC(=O)c2cc(O)c(O)c(OC(=O)c3cc(O)c(O)c(O)c3)c2)[C@@H]1OC(=O)c1cc(O)c(O)c(OC(=O)c2cc(O)c(O)c(O)c2)c1)c1cc(O)c(O)c(OC(=O)c2cc(O)c(O)c(O)c2)c1"
reported_endpoint = "KIDNEY_R"
reported = "1.4 g"

[[record]]
molecule = "CCCc1cc(=O)[nH]c(=S)[nH]1"
reported_endpoint = "KIDNEY_R"
reported = "1.3 g"

[[record]]
molecule = "Brc1ccccc1"
reported_endpoint = "KIDNEY_R"
reported = "1.3 g"


Request: Recall and state the measured KIDNEY_R for NC1=NC(=O)C(c2ccccc2)O1 (configuration not stated) .
Response: 1.4 g

* * *

Species on record: Rattus norvegicus
Assay: Open TG-GATES - Regimen: Single
Type: toxicity, organism-based, Sprague-Dawley
Parameters: regimen Single, gender Male, age 6 weeks
Settings: in vivo, po, 1000 mg/kg, 24 h, tissue Plasma, route gavage, dose level High
reported-endpoint: Ca
Report field: quantity (unit follows the number).

For orientation, consider the following solved cases.
[[record]]
structure_smiles = "CN/C(=N/CCSCc1nc[nH]c1C)NC#N"
reported_endpoint = "Ca"
reported = "10.6 mg/dL"

[[record]]
structure_smiles = "CNC(=C[N+](=O)[O-])NCCSCc1ccc(CN(C)C)o1"
reported_endpoint = "Ca"
reported = "10.8 mg/dL"

[[record]]
structure_smiles = "COC(=O)C1=C(C)NC(C)=C(C(=O)OC)C1c1ccccc1[N+](=O)[O-]"
reported_endpoint = "Ca"
reported = "10.4 mg/dL"

[[record]]
structure_smiles = "O=C(OC[C@H]1O[C@@H](OC(=O)c2cc(O)c(O)c(OC(=O)c3cc(O)c(O)c(O)c3)c2)[C@H](OC(=O)c2cc(O)c(O)c(OC(=O)c3cc(O)c(O)c(O)c3)c2)[C@@H](OC(=O)c2cc(O)c(O)c(OC(=O)c3cc(O)c(O)c(O)c3)c2)[C@@H]1OC(=O)c1cc(O)c(O)c(OC(=O)c2cc(O)c(O)c(O)c2)c1)c1cc(O)c(O)c(OC(=O)c2cc(O)c(O)c(O)c2)c1"
reported_endpoint = "Ca"
reported = "10.8 mg/dL"


Consider the additional compound presented here.
Request: # return recorded Ca for input "Cc1nnc2n1-c1ccc(Cl)cc1C(c1ccccc1Cl)=NC2"
Response: 11.5 mg/dL
